# test_summary: total protein half-life in vivo (active degradation + dilution); higher = more stable protein
# reported_conditions: wild type E. coli NCM3722; growth: N-lim chemostat; doubling time 12 h
quantity_kind: total protein half-life in vivo

Item under review: MKHDHFVVQSPDKPAQQLLLLFHGVGDNPVAMGEIGNWFAPLFPDALVVSVGGAEPSGNPAGRQWFSVQGITEDNRQARVDAIMPTFIETVRYWQKQSGVGANATALIGFSQGAIMVLESIKAEPGLASRVIAFNGRYASLPETASTATTIHLIHGGEDPVIDLAHAVAAQEALISAGGDVTLDIVEDLGHAIDNRSMQFALDHLRYTIPKHYFDEALSGGKPGDDDVIEMM . Reported total protein half-life in vivo? 3.93 h

Now this one: MKAARQQAIVDLLLNHTSLTTEALSEQLKVSKETIRRDLNELQTQGKILRNHGRAKYIHRQNQDSGDPFHIRLKSHYAHKADIAREALAWIEEGMVIALDASSTCWYLARQLPDINIQVFTNSHPICHELGKRERIQLISSGGTLERKYGCYVNPSLISQLKSLEIDLFIFSCEGIDSSGALWDSNAINADYKSMLLKRAAQSLLLIDKSKFNRSGEARIGHLDEVTHIISDERQVATSLVTA [P0ACK8] 0.218 h

Now this one: MTKYALVGDVGGTNARLALCDIASGEISQAKTYSGLDYPSLEAVIRVYLEEHKVEVKDGCIAIACPITGDWVAMTNHTWAFSIAEMKKNLGFSHLEIINDFTAVSMAIPMLKKEHLIQFGGAEPVEGKPIAVYGAGTGLGVAHLVHVDKRWVSLPGEGGHVDFAPNSEEEAIILEILRAEIGHVSAERVLSGPGLVNLYRAIVKADNRLPENLKPKDITERALADSCTDCRRALSLFCVIMGRFGGNLALNLGTFGGVFIAGGIVPRFLEFFKASGFRAAFEDKGRFKEYVHDIPVYLIVHDNPGLLGSGAHLRQTLGHIL [P0A6V8] 9.21 h

---

# test_summary: total protein half-life in vivo (active degradation + dilution); higher = more stable protein
# reported_conditions: E. coli NCM3722 delta-clpP delta-lon delta-hslV; growth: N-lim chemostat; doubling time 6 h
quantity_kind: total protein half-life in vivo (h)
Give just the number in h; leave the unit off.

For orientation, consider the following solved cases.
* MMQPVINAPEIATAREQQLFNGKNFHVFIYNKTESISGLHQHDYYEFTLVLTGRYFQEINGKRVLLERGDFVFIPLGSHHQSFYEFGATRILNVGISKRFFEQHYLPLLPYCFVASQVYRTNNAFLTYVETVISSLNFRETGLEEFVEMVTFYVINRLRHYREEQVIDDVPQWLKSTVEKMHDKEQFSESALENMVALSAKSQEYLTRATQRYYGKTPMQIINEIRINFAKKQLEMTNYSVTDIAFEAGYSSPSLFIKTFKKLTSFTPKSYRKKLTEFNQ | 5.04
* MIKKIFALPVIEQISPVLSRRKLDELDLIVVDHPQVKASFALQGAHLLSWKPAGEEEVLWLSNNTPFKNGVAIRGGVPVCWPWFGPAAQQGLPAHGFARNLPWTLKSHHEDADGVALTFELTQSEETKKFWPHDFTLLAHFRVGKTCEIDLESHGEFETTSALHTYFNVGDIAKVSVSGLGDRFIDKVNDAKENVLTDGIQTFPDRTDRVYLNPQDCSVINDEALNRIIAVGHQHHLNVVGWNPGPALSISMGDMPDDGYKTFVCVETAYASETQKVTKEKPAHLAQSIRVAKR | 5.78
* MSAVLTAEQALKLVGEMFVYHMPFNRALGMELERYEKEFAQLAFKNQPMMVGNWAQSILHGGVIASALDVAAGLVCVGSTLTRHETISEDELRQRLSRMGTIDLRVDYLRPGRGERFTATSSLLRAGNKVAVARVELHNEEQLYIASATATYMVG [P0ADP2] | 5.02
* MEYQLTLNWPDFLERHWQKRPVVLKRGFNNFIDPISPDELAGLAMESEVDSRLVSHQDGKWQVSHGPFESYDHLGETNWSLLVQAVNHWHEPTAALMRPFRELPDWRIDDLMISFSVPGGGVGPHLDQYDVFIIQGTGRRRWRVGEKLQMKQHCPHPDLLQVDPFEAIIDEELEPGDILYIPPGFPHEGYALENAMNYSVGFRAPNTRELISGFADYVLQRELGGNYYSDPDVPPRAHPADVLPQEMDKLREMMLELINQPEHFKQWFGEFISQSRHELDIAPPEPPYQPDEIYDALKQGEVLVRLGGLRVLRIGDDVYANGEKIDSPHRPALDALASNIALTAENFGDALEDPSFLAMLAALVNSGYWFFEG | 5

Item under review: MFNSDNLRLDGKCAIITGAGAGIGKEIAITFATAGASVVVSDINADAANHVVDEIQQLGGQAFACRCDITSEQELSALADFAISKLGKVDILVNNAGGGGPKPFDMPMADFRRAYELNVFSFFHLSQLVAPEMEKNGGGVILTITSMAAENKNINMTSYASSKAAASHLVRNMAFDLGEKNIRVNGIAPGAILTDALKSVITPEIEQKMLQHTPIRRLGQPQDIANAALFLCSPAASWVSGQILTVSGGGVQELN [P0AET8] . Reported total protein half-life in vivo? 4.91

Now this one: MARIIVVTSGKGGVGKTTSSAAIATGLAQKGKKTVVIDFDIGLRNLDLIMGCERRVVYDFVNVIQGDATLNQALIKDKRTENLYILPASQTRDKDALTREGVAKVLDDLKAMDFEFIVCDSPAGIETGALMALYFADEAIITTNPEVSSVRDSDRILGILASKSRRAENGEEPIKEHLLLTRYNPGRVSRGDMLSMEDVLEILRIKLVGVIPEDQSVLRASNQGEPVILDINADAGKAYADTVERLLGEERPFRFIEEEKKGFLKRLFGG [P0AEZ3] 5.31

---

# test_summary: total protein half-life in vivo (active degradation + dilution); higher = more stable protein
# reported_conditions: wild type E. coli NCM3722; growth: C-lim chemostat; doubling time 3 h
Reported values of total protein half-life in vivo for individual entries
Give just the number in h; leave the unit off.

For orientation, consider the following solved cases.
* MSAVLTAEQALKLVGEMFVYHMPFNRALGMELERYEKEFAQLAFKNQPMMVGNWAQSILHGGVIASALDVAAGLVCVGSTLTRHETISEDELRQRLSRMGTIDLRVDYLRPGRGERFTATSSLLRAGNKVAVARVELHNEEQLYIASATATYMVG [P0ADP2] | 2.82
* MSIKTIKYFSTIIVAVVAVLAGWWLWNYYMQSPWTRDGKIRAEQVSITPQVSGRIVELNIKDNQLVNAGDLLLTIDKTPFQIAELNAQAQLAKAQSDLAKANNEANRRRHLSQNFISAEELDTANLNVKAMQASVDAAQATLKQAQWQLAQTEIRAPVSGWVTNLTTRIGDYADTGKPLFALVDSHSFYVIGYFEETKLRHIREGAPAQITLYSDNKTLQGHVSSIGRAIYDQSVESDSSLIPDVKPNVPWVRLAQRVPVRFALDKVPGDVTLVSGTTCSIAVGQ | 3.43
* MIPEKRIIRRIQSGGCAIHCQDCSISQLCIPFTLNEHELDQLDNIIERKKPIQKGQTLFKAGDELKSLYAIRSGTIKSYTITEQGDEQITGFHLAGDLVGFDAIGSGHHPSFAQALETSMVCEIPFETLDDLSGKMPNLRQQMMRLMSGEIKGDQDMILLLSKKNAEERLAAFIYNLSRRFAQRGFSPREFRLTMTRGDIGNYLGLTVETISRLLGRFQKSGMLAVKGKYITIENNDALAQLAGHTRNVA [P0A9E5] | 1.23
* MFTGSIVAIVTPMDEKGNVCRASLKKLIDYHVASGTSAIVSVGTTGESATLNHDEHADVVMMTLDLADGRIPVIAGTGANATAEAISLTQRFNDSGIVGCLTVTPYYNRPSQEGLYQHFKAIAEHTDLPQILYNVPSRTGCDLLPETVGRLAKVKNIIGIKEATGNLTRVNQIKELVSDDFVLLSGDDASALDFMQLGGHGVISVTANVAARDMAQMCKLAAEGHFAEARVINQRLMPLHNKLFVEPNPIPVKWACKELGLVATDTLRLPMTPITDSGRETVRAALKHAGLL [P0A6L2] | 3.09
* MQCALYDAGRCRSCQWIMQPIPEQLSAKTADLKNLLADFPVEEWCAPVSGPEQGFRNKAKMVVSGSVEKPLLGMLHRDGTPEDLCDCPLYPASFAPVFAALKPFIARAGLTPYNVARKRGELKYILLTESQSDGGMMLRFVLRSDTKLAQLRKALPWLHEQLPQLKVITVNIQPVHMAIMEGETEIYLTEQQALAERFNDVPLWIRPQSFFQTNPAVASQLYATARDWVRQLPVKHMWDLFCGVGGFGLHCATPDMQLTGIEIASEAIACAKQSAAELGLTRLQFQALDSTQFATAQGDVPELVLVNPPRRGIGKPLCDYLSTMAPRFIIYSSCNAQTMAKDIRELPGFRIERVQLFDMFPHTAHYEVLTLLVKQ | 3.6
* MTHDNKLQVEAIKRGTVIDHIPAQIGFKLLSLFKLTETDQRITIGLNLPSGEMGRKDLIKIENTFLSEDQVDQLALYAPQATVNRIDNYEVVGKSRPSLPERIDNVLVCPNSNCISHAEPVSSSFAVRKRANDIALKCKYCEKEFSHNVVLAN [P0A7F3] | 3.33

Item under review: MDHRLLEIIACPVCNGKLWYNQEKQELICKLDNLAFPLRDGIPVLLETEARVLTADESKS [P0AAZ7] . Reported total protein half-life in vivo? 1.64

Now this one: MVSRYVPDMGDLIWVDFDPTKGSEQAGHRPAVVLSPFMYNNKTGMCLCVPCTTQSKGYPFEVVLSGQERDGVALADQVKSIAWRARGATKKGTVAPEELQLIKAKINVLIG [P0AE70] 3.16

Now this one: MVKLAFPRELRLLTPSQFTFVFQQPQRAGTPQITILGRLNSLGHPRIGLTVAKKNVRRAHERNRIKRLTRESFRLRQHELPAMDFVVVAKKGVADLDNRALSEALEKLWRRHCRLARGS [P0A7Y8] 3.11

Now this one: MSAGRLNKKSLGIVMLLSVGLLLAGCSGSKSSDTGTYSGSVYTVKRGDTLYRISRTTGTSVKELARLNGISPPYTIEVGQKLKLGGAKSSSITRKSTAKSTTKTASVTPSSAVPKSSWPPVGQRCWLWPTTGKVIMPYSTADGGNKGIDISAPRGTPIYAAGAGKVVYVGNQLRGYGNLIMIKHSEDYITAYAHNDTMLVNNGQSVKAGQKIATMGSTDAASVRLHFQIRYRATAIDPLRYLPPQGSKPKC 3.22

Now this one: MMQHQVNVSARFNPETLERVLRVVRHRGFHVCSMNMAAASDAQNINIELTVASPRSVDLLFSQLNKLVDVAHVAICQSTTTSQQIRA [P0ADG1] 0.829

Now this one: MARTKLKFRLHRAVIVLFCLALLVALMQGASWFSQNHQRQRNPQLEELARTLARQVTLNVAPLMRTDSPDEKRIQAILDQLTDESRILDAGVYDEQGDLIARSGESVEVRDRLALDGKKAGGYFNQQIVEPIAGKNGPLGYLRLTLDTHTLATEAQQVDNTTNILRLMLLLSLAIGVVLTRTLLQGKRTRWQQSPFLLTASKPVPEEEESEKKE [P0AGC7] 3.05

Now this one: MRIFVYGSLRHKQGNSHWMTNAQLLGDFSIDNYQLYSLGHYPGAVPGNGTVHGEVYRIDNATLAELDALRTRGGEYARQLIQTPYGSAWMYVYQRPVDGLKLIESGDWLDRDK [P0AE48] 2.57

Every entry's value here was drawn from the supplement of paper PMC11246515.
